# System: P12-Ichikawa
# test-summary: cell viability relative to DMSO control; higher = less cytotoxic
# condition-description: RPMI 5 mM glucose + 10% dialyzed FBS; 48 h; 0.0632 µM
assay-endpoint: cell viability (%)
Quick note: give the figure in %, leave out the unit.

# count of solved cases: 4
| compound | number |
| --- | --- |
| NC(=O)c1cccc(-c2cc(Nc3ccc(OC(F)(F)F)cc3)ncn2)c1 | 111 |
| CC(C)(N)C(=O)N[C@H](COCc1ccccc1)C(=O)N1CCC2(CC1)CN([S+](C)(=O)[O-])c1ccccc12 | 125 |
| NC1=NC(=O)N2CC12 (stereo not given) | 87.4 |
| CN1C(=O)c2sccc2N(C)c2nc(Nc3ccc([S+](N)(=O)[O-])cc3)ncc21 | 98.2 |

Let's switch to this compound now.
Looking up "OC(=O)\C1=C\N(C2CC2)C3=CC(=C(F)C=C3C1=O)N4CCNCC4" , I found its cell viability recorded as 112

###

Parameter: cell viability. Scope: all listed entries.
# Test system: NOMO1
# test-summary: cell viability relative to DMSO control; higher = less cytotoxic
# condition-description: HPLM + 10% dialyzed FBS; 48 h; 0.00702 µM

| compound-structure-string | result |
| --- | --- |
| O=C1NC(=O)/C(=C/c2ccc3nccnc3c2)S1 | 116% |
| COc1cc(C(=O)NC2CCN(C)CC2)ccc1Nc1ncc2c(n1)N(C1CCCC1)CCC(=O)N2C(C)C | 110% |
| Oc1cc(-c2nc(-c3ccccc3)[nH]c2-c2ccncc2)ccc1Cl | 119% |
| C[C@@H]1CC[C@@]2(CC[C@]3(C)\C(=C/C[C@@H]4[C@@]5(C)CC[C@H](O)C(C)(C)[C@@H]5CC[C@@]34C)[C@@H]2[C@H]1C)C(O)=O | 116% |

Looking up "O=C(O)CCCCCC(=O)NN=C1CCCC1" , I found its cell viability recorded as 116%

Looking up "CCCOc1ccc(C(=O)OCCN(CC)CC)cc1N" , I found its cell viability recorded as 124%

Looking up "CCN(CC)CCNC(=O)c1c(C)[nH]c(/C=C2\C(=O)Nc3ccc(F)cc32)c1C" , I found its cell viability recorded as 109%

###

Parameter: cell viability. Scope: all listed entries.
# Tested on: SEM cells
# test-summary: cell viability relative to DMSO control; higher = less cytotoxic
# condition-description: RPMI 5 mM glucose + 10% FBS; 48 h; 0.0632 µM
Quick note: give the figure in %, leave out the unit.

# count of solved cases: 6
| compound | number |
| --- | --- |
| O=C(c1cncc(Br)c1)N1CCC(N2CCCC2)CC1 | 105 |
| COc1cc(NCc2ccc3nc(N)nc(N)c3c2C)cc(OC)c1OC | 96.8 |
| CC(=O)N(C)C1(c2ccccc2)CCN(CCC[C@]2(c3ccc(Cl)c(Cl)c3)CCCN(C(=O)c3ccccc3)C2)CC1 | 123 |
| COC1=CC=C(C=C1)/C2=C(O)/C(=O)C3=C(O)C=C(O)C(=C3O2)CC=C(C)C | 95.2 |
| NC1=NC(=O)N2CC12 (configuration not stated) | 85.1 |
| O=C(CN1C(=O)C2(CCCC2)NC[C@H]1c1cc(F)cc(F)c1)Nc1ccc2c(c1)C[C@@]1(C2)C(=O)Nc2ncccc21 | 131 |

cell viability value, target or system SEM cells, for "O=C1N(c2ccccc2)c2ccccc2C1(Cc1ccncc1)Cc1ccncc1" : 129

cell viability value, target or system SEM cells, for C[C@]1(O)CC(C1)C2=NC(=C3[N]2C=CN=C3N)C4=CC5=C(C=C4)C=CC(=N5)C6=CC=CC=C6 (configuration not stated) : 105

cell viability value, target or system SEM cells, for "CC1(C)CC\C2=C(/O1)C3=C(C=CC=C3)C(=O)C2=O" : 129

###

# System: P12-Ichikawa
# test-summary: cell viability relative to DMSO control; higher = less cytotoxic
# condition-description: RPMI 5 mM glucose + 10% dialyzed FBS; 48 h; 0.0211 µM
assay-endpoint: cell viability (%)
Quick note: give the figure in %, leave out the unit.

# count of solved cases: 5
| compound | cell viability, % |
| --- | --- |
| Nc1ccc(C(=O)c2cc3c(ccc4ccccc43)[nH]2)cc1 | 102 |
| O=C(O)CCCCCC(=O)NN=C1CCCC1 | 100 |
| O=C(O)c1ccc(O)c2ncc(N3CCOCC3)cc12 | 90.9 |
| CCn1nnc2c(N3CCOCC3)nc(-c3ccc(NC(=O)Nc4ccc(C(=O)N5CCN(C)CC5)cc4)cc3)nc21 | 70.6 |
| N[S+](=O)([O-])c1ccc(Nc2nc(OCC3CCCCC3)c3[nH]cnc3n2)cc1 | 120 |

Looking up "Cc1cc(Nc2cc(N3CCN(C)CC3)nc(/C=C/c3ccccc3)n2)n[nH]1" , I found its cell viability recorded as 112

Looking up "CNC(=O)c1ccc2c(c1)NC(=O)/C2=C(\Nc1cccc(CN(C)C)c1)c1ccccc1" , I found its cell viability recorded as 101

###

# System: NOMO1
# test-summary: AUC of viability dose-response curve (% viability x log10 dose units); higher = less sensitive
# condition-description: RPMI 5 mM glucose + 10% FBS; 48 h
Parameter: AUC of viability dose-response curve. Scope: all listed entries.
Give the figure only, with no unit attached.

| compound-structure-string | AUC of viability dose-response curve |
| --- | --- |
| OC1=CC=C(C=C1)C/2=C/C3=C(OC2)C=C(O)C=C3 | 411 |
| COc1cc(C(=O)NC2CCN(C)CC2)ccc1Nc1ncc2c(n1)N(C1CCCC1)CCC(=O)N2C(C)C | 442 |
| CC(C)(N)c1ccc(-c2nc3ccccc3nc2-c2ccccc2)cc1 | 220 |
| OC1=CC2=C(C(=C1)O)C(=O)\C(=C(/O2)C3=CC(=C(O)C(=C3)O)O)O | 470 |

Let's switch to this compound now.
Looking up "Nc1cccc([S+](=O)([O-])N2CCCN([S+](=O)([O-])c3ccc4c(c3)OCCO4)CC2)c1" , I found its AUC of viability dose-response curve recorded as 464

###

Parameter: cell viability. Scope: all listed entries.
# Tested on: SEM cells
# test-summary: cell viability relative to DMSO control; higher = less cytotoxic
# condition-description: HPLM + 10% dialyzed FBS; 48 h; 5.12 µM
Quick note: give the figure in %, leave out the unit.

# count of solved cases: 3
| molecule | cell viability / % |
| --- | --- |
| N[S+](=O)([O-])c1ccc(Nc2nc(OCC3CCCCC3)c3[nH]cnc3n2)cc1 | 23.8 |
| CCn1nnc2c(N3CCOCC3)nc(-c3ccc(NC(=O)Nc4ccc(C(=O)N5CCN(C)CC5)cc4)cc3)nc21 | 54.1 |
| CC(C(C)N1CC(=O)NC(=O)C1)N1CC(=O)NC(=O)C1 (centres undefined) | 95.2 |

Let's switch to this molecule now.
Looking up "Cc1ccc(C(=O)Nc2cccc(C(F)(F)F)c2)cc1Nc1nc(-c2cccnc2)nc2c1cnn2C" , I found its cell viability recorded as 83.9

###

# System: SEM cells
# test-summary: cell viability relative to DMSO control; higher = less cytotoxic
# condition-description: RPMI 5 mM glucose + 10% FBS; 48 h; 46.1 µM
assay-endpoint: cell viability (%)
Quick note: give the figure in %, leave out the unit.

# count of solved cases: 2
| molecule | cell viability, % |
| --- | --- |
| CNC[C@H](O)[C@@H](O)[C@H](O)[C@H](O)CO | 114 |
| O=C(O)c1ccc(O)c2ncc(N3CCOCC3)cc12 | 7.59 |

Looking up "CCc1ccc(OCc2ccccc2C(=O)Nc2ccc3nc(C)cc(N)c3c2)cc1" , I found its cell viability recorded as 7.66

Looking up "O=C(CN1C(=O)C2(CCCC2)NC[C@H]1c1cc(F)cc(F)c1)Nc1ccc2c(c1)C[C@@]1(C2)C(=O)Nc2ncccc21" , I found its cell viability recorded as 129

Looking up "COCCn1c2c([n+](Cc3cnccn3)c1C)C(=O)c1ccccc1C2=O" , I found its cell viability recorded as 2.77

Looking up "Oc1cc(-c2nc(-c3ccccc3)[nH]c2-c2ccncc2)ccc1Cl" , I found its cell viability recorded as 45.2

Looking up "C[C@]12CC[C@H]3[C@@H](CC(=C)\C4=C\C(=O)\C=C/[C@]34C)[C@@H]1CCC2=O" , I found its cell viability recorded as 54.6

Looking up "CN(C)C/C=C/C(=O)Nc1ccc(C(=O)Nc2cccc(Nc3ncc(Cl)c(-c4c[nH]c5ccccc45)n3)c2)cc1" , I found its cell viability recorded as 6.13

Looking up "CCN(CC)CCNC(=O)c1c(C)[nH]c(/C=C2\C(=O)Nc3ccc(F)cc32)c1C" , I found its cell viability recorded as 4.31

Looking up "C[S+](=O)([O-])Oc1ccc2c(NC(N)=O)c(C(=O)c3ccc(Cl)cc3Cl)oc2c1" , I found its cell viability recorded as 112

Hello, the source for this data is the supplement of paper PMC11451515, in case you need it.
